- Organism: Rattus norvegicus
- test: Inhibition of rat hepatoma ribonucleotide reductase using ATP relative to hydroxyurea
observable: Ratio
Answers are plain numbers.

Please review the following examples before continuing.
{"columns": ["compound", "Ratio"],
 "data": [
  ["CCCCNC(=O)NO", 6.8],
  ["NC(=O)NO [HYDROXYUREA]", 1],
  ["CN(O)C(N)=O", 0.9]
]}

Below are some compounds; for each one, tell me its Ratio.
1. CC(C)(C)NC(=O)NO
2. CC(C)NC(=O)NO
3. CCN(O)C(N)=O
4. CCCNC(=O)NO

1: 9.5; 2: 19; 3: 1.5; 4: 3.8

###

Provide the reported logP at 72 h of each item.
- test: Octanol-water partition coefficient, log P of the compound after 72 hrs
- Format: physicochemical
Answers are plain numbers.

Please review the following examples before continuing.
{"columns": ["compound", "logP at 72 h"],
 "data": [
  ["CN(O)C(N)=O", -0.46],
  ["CC(C)NC(=O)NO", 0.2]
]}

Below are some compounds; for each one, tell me its logP at 72 h.
1. O=C(NO)Nc1ccccc1
2. CCCCNC(=O)NO
3. CCN(O)C(N)=O
4. NC(=O)NO [HYDROXYUREA]

1: 0.41; 2: 0.32; 3: -0.1; 4: -1.27
